The entries below are paired with their reported IC50.
system name: Integrin alpha-5/beta-1 (Homo sapiens, UniProt P05556+P08648)
protocol description: Antagonist activity at alpha5beta1 integrin receptor in human K562 cells assessed as reduction in fibronectin-induced cell adhesion pre-incubated for 30 mins
Format: cell-based

- compound: "Cc1ccccc1C(=O)N1C(=O)CC1CC(=O)O (stereo not given)"
  readout units: "nM"
  IC50: 419
- compound: "Cc1ccccc1C(=O)N1C(=O)C[C@H]1C(=O)O"
  readout units: "nM"
  IC50: 41.5
- compound: "Cc1ccccc1NC(=O)N1C(=O)C[C@@H]1C(=O)NCCC(=O)O"
  readout units: "nM"
  IC50: 96.9
- compound: "O=C(O)CNC(=O)CC1CC(=O)N1 (stereo not given)"
  readout units: "nM"
  IC50: 1110
- compound: "Cc1ccccc1NC(=O)NCC(=O)O"
  readout units: "nM"
  IC50: 3510

* * *

system name: Integrin alpha-V/beta-3 (Homo sapiens, UniProt P05106+P06756)
protocol description: Agonist activity at alphaVbeta3 integrin receptor in human Saos-2 cells assessed as increase in fibronectin-induced cell adhesion pre-incubated for 30 mins
Assay type: cell-based
pEC50: −log10 of the molar value.
experimental readout: pEC50

- molecule smiles: "O=C(O)/C=C1/CC(=O)N1"
  measurement: 6.81
- molecule smiles: "Cc1ccccc1NC(=O)NCC(=O)O"
  measurement: 6.52
- molecule smiles: "Cc1ccccc1NC(=O)NCCC(=O)O"
  measurement: 6.01

* * *

system name: Integrin alpha-4/beta-1 (Homo sapiens, UniProt P05556+P13612)
protocol description: Binding affinity to alpha4beta1 integrin receptor (unknown origin) incubated for 1 hr by scintillation proximity binding assay
pIC50: −log10 of the molar value.

- molecule: "Cc1ccccc1NC(=O)NCC(=O)O"
  pIC50: "< 6.00"
- molecule: "O=C(O)/C=C1/CC(=O)N1"
  pIC50: 6.53
- molecule: "Cc1ccccc1C(=O)N1C(=O)CC1CC(=O)O (configuration not stated)"
  pIC50: "< 6.00"
- molecule: "Cc1ccccc1C(=O)N1C(=O)C[C@H]1C(=O)O"
  pIC50: "< 6.00"
- molecule: "Cc1ccccc1NC(=O)N1CCC[C@H]1C(=O)O"
  pIC50: 7.72
- molecule: "Cc1ccccc1NC(=O)N1C(=O)C[C@@H]1C(=O)NCCC(=O)O"
  pIC50: "< 6.00"
- molecule: "Cc1ccccc1NC(=O)NCCC(=O)O"
  pIC50: "< 6.00"

* * *

system name: Integrin alpha-V/beta-3 (Homo sapiens, UniProt P05106+P06756)
protocol description: Binding affinity to alphaVbeta3 integrin receptor (unknown origin) incubated fro 30 mins by competitive solid-phase binding assay
experimental readout: IC50 (nM)

- molecule: "Cc1ccccc1C(=O)N1C(=O)C[C@H]1C(=O)O"
  cmp: ">"
  measurement: 1000
- molecule: "O=C(O)/C=C1/CC(=O)N1"
  cmp: "="
  measurement: 29
- molecule: "Cc1ccccc1NC(=O)N1C(=O)C[C@@H]1C(=O)NCCC(=O)O"
  cmp: ">"
  measurement: 1000
- molecule: "Cc1ccccc1NC(=O)NCC(=O)O"
  cmp: "="
  measurement: 3.4
- molecule: "Cc1ccccc1NC(=O)N1CCC[C@H]1C(=O)O"
  cmp: ">"
  measurement: 1000
- molecule: "Cc1ccccc1NC(=O)NCCC(=O)O"
  cmp: "="
  measurement: 9.5
- molecule: "Cc1ccccc1C(=O)N1C(=O)CC1CC(=O)O (configuration not stated)"
  cmp: ">"
  measurement: 1000

Just for reference, ChEMBL document CHEMBL4321835 is where these values come from.
